system tested: XBP1 (Homo sapiens)
Construct: made in house
Sequence (P17861 70-133 limits assumed): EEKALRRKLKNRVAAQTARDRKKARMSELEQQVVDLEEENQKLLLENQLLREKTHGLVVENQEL
method: Direct-binding FRET assay
test parameters: 37°C; C-terminal rhodamine design; repeat 1; read-out: Kd
Where no end group is shown, it is not given here.
observation type: Kd

Q: Item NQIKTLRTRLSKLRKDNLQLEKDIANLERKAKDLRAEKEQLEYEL [ATF4-d1] : provide Kd
A: > 1000 nM

----------
system tested: JUNB (Homo sapiens)
Construct: made in house
Sequence (P17275 268-331 limits assumed): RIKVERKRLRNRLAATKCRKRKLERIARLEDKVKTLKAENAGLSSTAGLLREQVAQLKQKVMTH
method: Direct-binding FRET assay
test parameters: 37°C; C-terminal fluorescein design as donor, TAMRA target titrated; read-out: Kd
Where no end group is shown, it is not given here.
observation type: Kd

Q: Item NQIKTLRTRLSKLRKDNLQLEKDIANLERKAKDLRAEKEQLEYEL [ATF4-d1] : provide Kd
A: > 1000 nM
